Listing of entries alongside the reported A570 nm-A630 nm.
- System: human retinal capillary endothelial cells (HRCECs)
- Assay Summary: MTT proliferation inhibition on HRCECs
- Format: cell-based
- Test Context: 48 h, dose 0.2 μM, mean±SD
Peptide text beside a SMILES is read from it. * marks the point of attachment. X64 = O=C1C=CC(=O)N1c1cccc(CCCCCCCCCC(=O)*)c1; X61 = O=C1C=CC(=O)N1c1cccc(CCCC(=O)*)c1
Quantity Kind: A570 nm-A630 nm

1. C[C@H](NC(=O)CNC(=O)[C@H](CCCNC(=N)N)NC(=O)CCCc1cccc(N2C(=O)C=CC2=O)c1)C(=O)N[C@@H](CC(=O)O)C(=O)N[C@@H](CCCNC(=N)N)C(=O)N[C@@H](C)C(=O)NCC(=O)NCC(=O)NCC(=O)NCC(=O)N[C@@H](CCCNC(=N)N)C(=O)NCC(=O)N[C@@H](CC(=O)O)C(=O)O [X27] (X61-RGADRAGGGGRGD-OH)    0.5731
2. C[C@H](NC(=O)CNC(=O)[C@H](CCCNC(=N)N)NC(=O)CCCCCCCCCc1cccc(N2C(=O)C=CC2=O)c1)C(=O)N[C@@H](CC(=O)O)C(=O)N[C@@H](CCCNC(=N)N)C(=O)N[C@@H](C)C(=O)NCC(=O)NCC(=O)NCC(=O)NCC(=O)N[C@@H](CCCNC(=N)N)C(=O)NCC(=O)N[C@@H](CC(=O)O)C(=O)O [X33] (X64-RGADRAGGGGRGD-OH)    0.4991

* * *

- Test system: human retinal capillary endothelial cells (HRCECs)
- Assay Summary: MTT proliferation inhibition on HRCECs
- Type: cell-based
- Test Context: 48 h, dose 0.2 μM
Peptide text beside a SMILES is read from it. * marks the point of attachment. X72 = O=C1C=CC(=O)N1c1ccccc1CCCCCCCCCCC(=O)*; X55 = O=C1C=CC(=O)N1c1ccccc1CCCCCCCCC(=O)*; X46 = O=C1C=CC(=O)N1c1cccc(CCCCC(=O)*)c1
Quantity Kind: Inhibition rate (%) (%*)

1. C[C@H](NC(=O)CNC(=O)[C@H](CCCNC(=N)N)NC(=O)CCCCCCCCCCc1ccccc1N1C(=O)C=CC1=O)C(=O)N[C@@H](CC(=O)O)C(=O)N[C@@H](CCCNC(=N)N)C(=O)N[C@@H](C)C(=O)NCC(=O)NCC(=O)NCC(=O)NCC(=O)N[C@@H](CCCNC(=N)N)C(=O)NCC(=O)N[C@@H](CC(=O)O)C(=O)O [X22] (X72-RGADRAGGGGRGD-OH)    66.52
2. C[C@H](NC(=O)CNC(=O)[C@H](CCCNC(=N)N)NC(=O)CCCCc1cccc(N2C(=O)C=CC2=O)c1)C(=O)N[C@@H](CC(=O)O)C(=O)N[C@@H](CCCNC(=N)N)C(=O)N[C@@H](C)C(=O)NCC(=O)NCC(=O)NCC(=O)NCC(=O)N[C@@H](CCCNC(=N)N)C(=O)NCC(=O)N[C@@H](CC(=O)O)C(=O)O [X28] (X46-RGADRAGGGGRGD-OH)    69.71
3. C[C@H](NC(=O)CNC(=O)[C@H](CCCNC(=N)N)NC(=O)CCCCCCCCc1ccccc1N1C(=O)C=CC1=O)C(=O)N[C@@H](CC(=O)O)C(=O)N[C@@H](CCCNC(=N)N)C(=O)N[C@@H](C)C(=O)NCC(=O)NCC(=O)NCC(=O)NCC(=O)N[C@@H](CCCNC(=N)N)C(=O)NCC(=O)N[C@@H](CC(=O)O)C(=O)O [X20] (X55-RGADRAGGGGRGD-OH)    60.14
